Study target: MAGL (Mus musculus (Mouse), UniProt O35678)
Sequence (O35678 whole entry): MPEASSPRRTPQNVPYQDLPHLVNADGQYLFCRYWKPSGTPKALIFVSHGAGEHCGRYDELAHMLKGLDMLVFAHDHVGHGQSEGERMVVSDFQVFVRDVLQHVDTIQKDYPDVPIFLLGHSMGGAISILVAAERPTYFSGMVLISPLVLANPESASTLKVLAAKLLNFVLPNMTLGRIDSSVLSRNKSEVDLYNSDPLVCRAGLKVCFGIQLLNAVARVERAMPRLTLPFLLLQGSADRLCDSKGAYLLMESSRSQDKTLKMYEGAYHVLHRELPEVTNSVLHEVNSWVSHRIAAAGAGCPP
Assay procedure: In vitro competitive activity-based protein profiling (mouse brain membrane fraction or cell lysates), MAGL band
Format: biochemical
Conditions used: mouse proteome, competitive ABPP
Measured endpoint: IC50

{"columns": ["Molecule", "Measured endpoint", "Reported value"],
 "data": [
  ["O=C(OC(C(F)(F)F)C(F)(F)F)N1CCC2(CCCN2Cc2cccc(OCCN3CCCC3)c2)CC1", "IC50", "100 to 1000 nM"],
  ["O=C(OC(C(F)(F)F)C(F)(F)F)N1CCC2(CCN(Cc3ccc(Cl)cc3N3CC4COCC4C3)C2)CC1 (centres unmarked)", "IC50", "< 100 nM"],
  ["O=C(OC(C(F)(F)F)C(F)(F)F)N1CCC2(CCCN2Cc2ccc(OCCN3CCCCC3)c(Cl)c2)CC1", "IC50", "100 to 1000 nM"],
  ["COc1cccc(CN2CCCC23CCN(C(=O)OC(C(F)(F)F)C(F)(F)F)CC3)c1Cl", "IC50", "< 100 nM"],
  ["CC1(C)CC2(CCN(C(=O)OC(C(F)(F)F)C(F)(F)F)CC2)CN1Cc1cccc(OC(F)(F)F)c1N1CCOCC1", "IC50", "< 100 nM"],
  ["O=C(OC(C(F)(F)F)C(F)(F)F)N1CCC2(CCCN2Cc2ccc(Cl)c(N3CCOCC3)c2)CC1", "IC50", "< 100 nM"],
  ["COc1cc(Cl)ccc1CN1CCCC12CCN(C(=O)OC(C(F)(F)F)C(F)(F)F)CC2", "IC50", "< 100 nM"],
  ["CS(=O)(=O)N1CCN(c2cc(Cl)cc(CN3CCCC34CCN(C(=O)OC(C(F)(F)F)C(F)(F)F)CC4)c2)CC1", "IC50", "< 100 nM"],
  ["CC(=O)N1CCCc2cccc(CN3CCCC34CCN(C(=O)OC(C(F)(F)F)C(F)(F)F)CC4)c21", "IC50", "100 to 1000 nM"],
  ["O=C(OC(C(F)(F)F)C(F)(F)F)N1CCC2(CCCN2Cc2ccc(Cl)cc2N2CCN(CCF)CC2)CC1", "IC50", "< 100 nM"],
  ["O=C(OC(C(F)(F)F)C(F)(F)F)N1CCC2(CCCN2Cc2cccc(OCCN3CCCCC3)c2)CC1", "IC50", "100 to 1000 nM"],
  ["O=C(OC(C(F)(F)F)C(F)(F)F)N1CCC2(CCCN2Cc2ccc(C(F)(F)F)cc2N2CCC2)CC1", "IC50", "< 100 nM"],
  ["O=C(OC(C(F)(F)F)C(F)(F)F)N1CCC2(CCN(Cc3ccc(Cl)cc3N3CCCCC3)C2)CC1", "IC50", "< 100 nM"],
  ["O=C(COc1cc(C(F)(F)F)ccc1CN1CCCC12CCN(C(=O)OC(C(F)(F)F)C(F)(F)F)CC2)N1CCCC1", "IC50", "< 100 nM"],
  ["CS(=O)(=O)N1CCc2cccc(CN3CCC4(CCN(C(=O)OC(C(F)(F)F)C(F)(F)F)CC4)C3)c2C1", "IC50", "< 100 nM"],
  ["Cc1cc(CN2CCCC23CCN(C(=O)OC(C(F)(F)F)C(F)(F)F)CC3)ccc1Cl", "IC50", "< 100 nM"],
  ["O=C(OC(C(F)(F)F)C(F)(F)F)N1CCC2(CCN(Cc3ccc(C(F)(F)F)cc3N3CCOCC3)C2)CC1", "IC50", "< 100 nM"],
  ["Cc1c(CN2CCCC23CCN(C(=O)OC(C(F)(F)F)C(F)(F)F)CC3)cccc1N1CCOCC1", "IC50", "< 100 nM"],
  ["CC1(C)CC2(CCN(C(=O)OC(C(F)(F)F)C(F)(F)F)CC2)CN1Cc1ccc(C(F)(F)F)cc1N1CCOCC1", "IC50", "< 100 nM"],
  ["CC1(C)CC2(CCN(C(=O)OC(C(F)(F)F)C(F)(F)F)CC2)CN1Cc1cc(Cl)ccc1N1CCOCC1", "IC50", "< 100 nM"],
  ["O=C(OC(C(F)(F)F)C(F)(F)F)N1CCC2(CCCN2Cc2ccc(Cl)cc2N2CCC(F)CC2)CC1", "IC50", "< 100 nM"],
  ["O=C(OC(C(F)(F)F)C(F)(F)F)N1CCC2(CCCN2Cc2cc(Cl)cc(N3CCCC3)c2)CC1", "IC50", "< 100 nM"],
  ["O=C(OC(C(F)(F)F)C(F)(F)F)N1CCC2(CCCN2Cc2ccc3c(c2)COC3)CC1", "IC50", "< 100 nM"],
  ["O=C(OC(C(F)(F)F)C(F)(F)F)N1CCC2(CCCN2Cc2ccc(C(F)(F)F)cc2N2CC3CCC(C2)O3)CC1", "IC50", "< 100 nM"],
  ["O=C(OC(C(F)(F)F)C(F)(F)F)N1CCC2(CCCN2Cc2ccc(OCCF)cc2)CC1", "IC50", "< 100 nM"],
  ["O=C(OC(C(F)(F)F)C(F)(F)F)N1CCC2(CCN(Cc3ccc(N4CCCC4)c(Cl)c3)C2)CC1", "IC50", "100 to 1000 nM"],
  ["O=C(OC(C(F)(F)F)C(F)(F)F)N1CCC2(CCCN2Cc2ccc(F)c(OCCF)c2)CC1", "IC50", "< 100 nM"],
  ["O=C(OC(C(F)(F)F)C(F)(F)F)N1CCC2(CCCN2Cc2ccc3c(c2)OCCO3)CC1", "IC50", "< 100 nM"],
  ["CC1(C)CC2(CCN(C(=O)OC(C(F)(F)F)C(F)(F)F)CC2)CN1Cc1cc(N2CCOCC2)cc(C(F)(F)F)c1", "IC50", "100 to 1000 nM"]
]}

---

Study target: MAGL (Mus musculus (Mouse))
Assay procedure: In vitro competitive activity-based protein profiling (mouse brain membrane fraction or cell lysates), MAGL band
Format: biochemical
Conditions used: mouse proteome, competitive ABPP
pIC50: −log10 of the molar value.

{"columns": ["Smiles string", "pIC50"],
 "data": [
  ["O=C(OC(C(F)(F)F)C(F)(F)F)N1CCC2(CCCN2Cc2cc(Oc3cccnc3)cc(C(F)(F)F)c2)CC1", "> 7.00"],
  ["O=C(O)C1CCN(c2cc(CN3CCCC34CCN(C(=O)OC(C(F)(F)F)C(F)(F)F)CC4)cc(C(F)(F)F)c2)CC1", "> 7.00"],
  ["CC(=O)N1CCN(c2cc(C(F)(F)F)ccc2CN2CCCC23CCN(C(=O)OC(C(F)(F)F)C(F)(F)F)CC3)CC1", "> 7.00"],
  ["O=C(OC(C(F)(F)F)C(F)(F)F)N1CCC2(CCCN2Cc2ccc(C(F)(F)F)c(N3CCCC3)c2)CC1", "> 7.00"]
]}

---

Study target: ABHD6 (Mus musculus (Mouse), UniProt Q8R2Y0)
Sequence (Q8R2Y0 whole entry): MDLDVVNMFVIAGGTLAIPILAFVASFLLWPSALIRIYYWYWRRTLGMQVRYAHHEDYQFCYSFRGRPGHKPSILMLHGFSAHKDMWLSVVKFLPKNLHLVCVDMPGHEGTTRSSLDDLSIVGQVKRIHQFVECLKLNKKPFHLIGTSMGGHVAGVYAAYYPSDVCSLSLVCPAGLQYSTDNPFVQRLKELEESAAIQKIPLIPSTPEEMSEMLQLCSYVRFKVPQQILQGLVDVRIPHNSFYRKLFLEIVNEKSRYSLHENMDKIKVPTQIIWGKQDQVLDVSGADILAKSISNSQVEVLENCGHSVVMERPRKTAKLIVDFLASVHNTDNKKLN
Assay procedure: In vitro competitive activity-based protein profiling (mouse brain membrane fraction or cell lysates), ABHD6 band
Type: biochemical
Conditions used: mouse proteome, competitive ABPP
Quick reference for IC50 among some compounds

{"columns": ["Smiles string", "Study target", "IC50"],
 "data": [
  ["O=C(OC(C(F)(F)F)C(F)(F)F)N1CCC2(CCCN2Cc2cc(OC3CCS(=O)(=O)CC3)cc(C(F)(F)F)c2)CC1", "ABHD6 (Mus musculus (Mouse), UniProt Q8R2Y0)", "> 1000 nM"],
  ["O=C(OC(C(F)(F)F)C(F)(F)F)N1CCC2(CCCN2Cc2ccc(N3CCCC3)c(Cl)c2)CC1", "ABHD6 (Mus musculus (Mouse), UniProt Q8R2Y0)", "> 1000 nM"],
  ["CC1(C)CC2(CCN(C(=O)OC(C(F)(F)F)C(F)(F)F)CC2)CN1Cc1cc(CN2CCOCC2)ccc1OC(F)(F)F", "ABHD6 (Mus musculus (Mouse), UniProt Q8R2Y0)", "100 to 1000 nM"],
  ["O=C(O)c1ccc(CN2CCCC23CCN(C(=O)OC(C(F)(F)F)C(F)(F)F)CC3)cc1C(F)(F)F", "ABHD6 (Mus musculus (Mouse), UniProt Q8R2Y0)", "> 1000 nM"],
  ["O=C(OC(C(F)(F)F)C(F)(F)F)N1CCC2(CCCN2Cc2ccc(C(F)(F)F)c(N3CCOCC3)c2)CC1", "ABHD6 (Mus musculus (Mouse), UniProt Q8R2Y0)", "> 1000 nM"],
  ["O=C(OC(C(F)(F)F)C(F)(F)F)N1CCC2(CCCN2Cc2ccc(Cl)cc2N2CCN(CCF)CC2)CC1", "ABHD6 (Mus musculus (Mouse), UniProt Q8R2Y0)", "> 1000 nM"],
  ["Cc1ccc(CN2CCC3(CCN(C(=O)OC(C(F)(F)F)C(F)(F)F)CC3)C2)cc1Cl", "ABHD6 (Mus musculus (Mouse), UniProt Q8R2Y0)", "100 to 1000 nM"],
  ["O=C(OC(C(F)(F)F)C(F)(F)F)N1CCC2(CCCN2Cc2ccc(Cl)cc2N2CCCC2)CC1", "ABHD6 (Mus musculus (Mouse), UniProt Q8R2Y0)", "> 1000 nM"],
  ["CC1(C)CC2(CCN(C(=O)OC(C(F)(F)F)C(F)(F)F)CC2)CN1Cc1c(N2CCC3(CCOCC3)C2)cccc1C(F)(F)F", "ABHD6 (Mus musculus (Mouse), UniProt Q8R2Y0)", "> 1000 nM"],
  ["O=C(OC(C(F)(F)F)C(F)(F)F)N1CCC2(CCCN2Cc2cc(OC3CCOCC3)cc(C(F)(F)F)c2)CC1", "ABHD6 (Mus musculus (Mouse), UniProt Q8R2Y0)", "> 1000 nM"],
  ["O=C(OC(C(F)(F)F)C(F)(F)F)N1CCC2(CCCN2Cc2cccc(N3CCOCC3)c2)CC1", "ABHD6 (Mus musculus (Mouse), UniProt Q8R2Y0)", "> 1000 nM"],
  ["O=C(O)C1CCN(c2cc(Cl)ccc2CN2CCC3(CCN(C(=O)OC(C(F)(F)F)C(F)(F)F)CC3)C2)CC1", "ABHD6 (Mus musculus (Mouse), UniProt Q8R2Y0)", "> 1000 nM"],
  ["O=C(OC(C(F)(F)F)C(F)(F)F)N1CCC2(CCCN2Cc2cccc(N3CCOCC3)c2Cl)CC1", "ABHD6 (Mus musculus (Mouse), UniProt Q8R2Y0)", "> 1000 nM"],
  ["CC(=O)N1CCCc2cccc(CN3CCC4(CCN(C(=O)OC(C(F)(F)F)C(F)(F)F)CC4)C3)c21", "ABHD6 (Mus musculus (Mouse), UniProt Q8R2Y0)", "100 to 1000 nM"],
  ["O=C(O)c1cc(CN2CCCC23CCN(C(=O)OC(C(F)(F)F)C(F)(F)F)CC3)ccc1C(F)(F)F", "ABHD6 (Mus musculus (Mouse), UniProt Q8R2Y0)", "> 1000 nM"]
]}
